tested on: 67R cells; assay: Cell proliferation assay (SRB), ASK120067-resistant 67R cells; assay type: cell-based, Human; conditions: Homo sapiens, 120 h, proliferation inhibition, mean ± SD (n = 3), cells with high BCAT1 expression
Measure name: pIC50
Scale explanation: pIC50 corresponds to minus log10 of a concentration expressed in moles per litre.

Solved entries (count: 2):
- NCC1(CC(=O)O)CC2CCC1CC2 (centres unmarked): 2.86
- NC[C@@]1(CC(=O)O)C[C@H]2CC[C@@H]1C2 (relative stereo): 2.59

# ---- query molecule ----
input: Please report pIC50 for the following molecule: NCC1(CC(=O)O)CCCCC1 [gabapentin, reference compound]
output: 2.45

Hey, just so you know, these numbers are from paper PMC11858294.
